assayed_target: SST2 (Homo sapiens)
Construct: host or cells: PathHunter CHO-K1 SST2 cells
Sequence (P30874 whole entry): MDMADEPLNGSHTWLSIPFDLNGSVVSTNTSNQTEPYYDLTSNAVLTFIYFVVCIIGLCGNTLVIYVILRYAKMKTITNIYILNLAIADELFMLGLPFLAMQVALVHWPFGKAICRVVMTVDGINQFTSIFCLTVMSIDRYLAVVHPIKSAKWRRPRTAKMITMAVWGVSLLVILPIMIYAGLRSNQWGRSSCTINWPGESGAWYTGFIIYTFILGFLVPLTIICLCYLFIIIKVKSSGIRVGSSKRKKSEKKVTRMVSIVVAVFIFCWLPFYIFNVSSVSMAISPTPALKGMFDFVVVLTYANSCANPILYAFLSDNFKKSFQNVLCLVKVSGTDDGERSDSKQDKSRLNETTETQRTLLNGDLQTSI
protocol_description: PathHunter CHO-K1 SST2 internalization assay
Assay type: cell-based
stated_conditions: PathHunter CHO-K1 SST2, 90 min; read-out: Internalization EC50
Starred links: 1 amine or outer side, 2 acyl side, 3 side chain; linkers in the order of their positions; H or OH if unused. Non-standard residues stand in square brackets, D forms with d. Residues, ends and D or L forms follow the SMILES beside them. *: point of attachment. X1 = Cc1cc(F)cc(-c2cnc(NCCNC(=O)CCOCCC(=O)*)c(-c3nc4ccc(Cl)cc4[nH]3)c2N2CCC(N)CC2)c1; Dolaproine = CO[C@@H]([C@@H]1CCCN1)[C@@H](C)C(=O)O; Dil = CC[C@H](C)[C@H](NC)[C@@H](CC(=O)O)OC; PABC = O=C(OCc1ccc(N[*:1])cc1)[*:2]; X2 = C[C@@H](N*)[C@@H](O)c1ccccc1; Cya = N[C@@H](CS(=O)(=O)O)C(=O)O; Cit = NC(=O)NCCC[C@H](N)C(=O)O; NMeV = CN[C@H](C(=O)O)C(C)C
parameter: EC50 (nM)
One number for each entry, in nM.

For every item below, please supply its EC50.
1. CC[C@H](C)[C@@H]([C@@H](CC(=O)N1CCC[C@H]1[C@H](OC)[C@@H](C)C(=O)N[C@H](C)[C@@H](O)c1ccccc1)OC)N(C)C(=O)[C@@H](NC(=O)[C@H](C(C)C)N(C)C(=O)OCc1ccc(NC(=O)[C@H](CCCNC(N)=O)NC(=O)[C@@H](NC(=O)[C@H](CS(=O)(=O)O)NC(=O)CCOCCOCCOCCOCCC(=O)NCCNc2ncc(-c3cc(C)cc(F)c3)c(N3CCC(N)CC3)c2-c2nc3ccc(Cl)cc3[nH]2)C(C)C)cc1C(=O)NCCN)C(C)C [Compound 100]
2. CC[C@H](C)[C@@H]([C@@H](CC(=O)N1CCC[C@H]1[C@H](OC)[C@@H](C)C(=O)N[C@H](C)[C@@H](O)c1ccccc1)OC)N(C)C(=O)[C@@H](NC(=O)[C@H](C(C)C)N(C)C(=O)OCc1ccc(NC(=O)[C@H](CCCNC(N)=O)NC(=O)[C@@H](NC(=O)CCOCCNCCNc2ncc(-c3cc(C)cc(F)c3)c(N3CCC(N)CC3)c2-c2nc3ccc(Cl)cc3[nH]2)C(C)C)c(O[C@@H]2O[C@H](C(=O)O)[C@@H](O)[C@H](O)[C@H]2O)c1)C(C)C
3. Cc1cc(F)cc(-c2cnc(NCCNC(=O)CCOCCC(=O)NCCNC(=O)c3c(C)[nH]c(/C=C4\C(=O)Nc5ccc(F)cc54)c3C)c(-c3nc4ccc(Cl)cc4[nH]3)c2N2CCC(N)CC2)c1
4. CC[C@H](C)[C@@H]([C@@H](CC(=O)N1CCC[C@H]1[C@H](OC)[C@@H](C)C(=O)N[C@H](C)[C@@H](O)c1ccccc1)OC)N(C)C(=O)[C@@H](NC(=O)[C@H](C(C)C)N(C)C(=O)OCc1ccc(NC(=O)[C@H](CCCNC(N)=O)NC(=O)[C@@H](NC(=O)CCOCCNC(=O)CN2CCN(CC(=O)O)CCN(CC(=O)NCCNc3ncc(-c4cc(C)cc(F)c4)c(N4CCC(N)CC4)c3-c3nc4ccc(Cl)cc4[nH]3)CC2)C(C)C)cc1)C(C)C
5. CC[C@H](C)[C@@H]([C@@H](CC(=O)N1CCC[C@H]1[C@H](OC)[C@@H](C)C(=O)N[C@H](C)[C@@H](O)c1ccccc1)OC)N(C)C(=O)[C@@H](NC(=O)[C@H](C(C)C)N(C)C(=O)OCc1ccc(NC(=O)[C@H](CCCNC(N)=O)NC(=O)[C@@H](NC(=O)[C@H](CS(=O)(=O)O)NC(=O)[C@H](CCC(=O)O)NC(=O)CCOCCC(=O)NCCNc2ncc(-c3cc(C)cc(F)c3)c(N3CCC(N)CC3)c2-c2nc3ccc(Cl)cc3[nH]2)C(C)C)cc1)C(C)C [Compound 105] (X1-E[Cya]V[Cit][PABC][NMeV]V[Dil][Dolaproine]-X2)

1: 3.3; 2: 8.7; 3: 2.2; 4: 13.7; 5: 14

Recorded values, source patent US12134610B2.
